Measured values drawn from PubChem BioAssay (Tox21) for this set.

Assay: qHTS assay to identify small molecule antagonists of the estrogen related receptor signaling pathway with the pleiotropic PPARgamma coactivator (PGC) cell viability counter screen (AID 1224822;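 further: viability read after 17.5 h compound exposure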)
Conditions: ERR/PGC reporter cell line viability counter screen; series mostly up to 46.1 µM
Inconclusive results are not listed. Active and inactive are the calls of the source. The call rests on the fitted dose curve; in most records, active means well fitted cell-killing curve with a large enough effect in the repeat runs; inconclusive means weak or mixed curves, or effect the other way; inactive means flat fitted curve, though single readings scatter.
Lab note: assign the record to one of Y for active, N for inactive

Examples with answers:
O=C1CCC(c2ccc(-n3ccnc3)cc2)=NN1 = N
C[C@@H](NCCc1ccc(O)cc1)[C@@H](O)c1ccc(O)cc1 = N
O=C1Nc2ccc(I)cc2/C1=C/c1cc(Br)c(O)c(Br)c1 = N
Nc1nc2ccc(Cl)cc2c2nc(-c3ccco3)nn12 = N
CCOC(=O)N1CCN(/[N+]([O-])=N/Oc2ccc([N+](=O)[O-])cc2[N+](=O)[O-])CC1 = Y

Asked: Please indicate how the test categorized "CCN(CC)CCCCNc1ncc2cc(-c3c(Cl)cccc3Cl)c(NC(=O)NC(C)(C)C)nc2n1" .
Given back: Y

Asked: // outcome(item) with item = C#CC(N)CCC(=O)O (stereo not drawn)
Given back: N

Asked: Fill in: this test's call for "COCc1nc2c([nH]1)c(=O)n(C)c(=O)n2CC(C)C" is ___
Given back: N
